# IC50 measurements, system: human PKCθ full length enzyme (Homo sapiens, UniProt Q04759)
# Sequence (Q04759 whole entry): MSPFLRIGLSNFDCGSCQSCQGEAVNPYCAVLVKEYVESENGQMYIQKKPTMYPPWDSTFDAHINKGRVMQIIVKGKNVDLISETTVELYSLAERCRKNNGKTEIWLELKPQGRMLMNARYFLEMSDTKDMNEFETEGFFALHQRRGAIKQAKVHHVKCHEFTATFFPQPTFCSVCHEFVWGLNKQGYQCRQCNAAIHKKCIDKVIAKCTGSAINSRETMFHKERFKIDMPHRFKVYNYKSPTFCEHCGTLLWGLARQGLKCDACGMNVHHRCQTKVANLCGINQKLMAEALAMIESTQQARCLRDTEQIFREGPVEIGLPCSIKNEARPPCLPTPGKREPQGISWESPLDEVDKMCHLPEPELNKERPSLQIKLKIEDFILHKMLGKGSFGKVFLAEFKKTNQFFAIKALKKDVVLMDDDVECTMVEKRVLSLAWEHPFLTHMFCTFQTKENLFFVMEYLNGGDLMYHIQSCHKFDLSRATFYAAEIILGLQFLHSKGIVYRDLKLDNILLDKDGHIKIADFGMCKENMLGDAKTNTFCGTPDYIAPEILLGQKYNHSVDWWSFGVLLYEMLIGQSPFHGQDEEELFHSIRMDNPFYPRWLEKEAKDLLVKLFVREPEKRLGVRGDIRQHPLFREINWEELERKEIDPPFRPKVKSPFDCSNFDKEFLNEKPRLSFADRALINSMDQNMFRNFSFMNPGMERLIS
Your answer is read as nM, so omit the unit and give the number.

Cc1ncc(C#N)c(Nc2cccc3[nH]ccc23)c1-c1cc2ccccc2o1; 113
Cc1ncc(C#N)c(Nc2ccc3[nH]ccc3c2C)c1-c1cc2cc(C=O)ccc2o1; 12
Cc1ncc(C#N)c(Nc2ccc3[nH]ccc3c2C)c1-c1ccc(OCCNC2CCN(C)CC2)cc1; 9

Kindly consider the entry below.
# input compound: Cc1ncc(C#N)c(Nc2ccc3[nH]ccc3c2C)c1-c1ccc(OCCNCCN2CCCC2)cc1 ; wanted: its IC50
26

###

Let's look at some molecules and their measured half-life.
# test method notes: Metabolic stability in rat liver microsomes
# Format: in vitro ADME
# condition info: 30 minutes incubation, remaining compound by HPLC, related compounds lacking the C-6 alkyl group, read-out: Rat Microsome Stability of 6-H cyanopyridine Compounds (approximate half life)
Your answer is read as min, so omit the unit and give the number.

Cc1c(Nc2c(C#N)cncc2-c2ccc(OCCN3CCC(N4CCOCC4)CC3)cc2)ccc2[nH]ccc12; 10

Kindly consider the entry below.
# input molecule: Cc1c(Nc2c(C#N)cncc2-c2ccc(OCCN3CCOCC3)cc2)ccc2[nH]ccc12 ; wanted: its half-life
8

###

# test method notes: Metabolic stability in rat liver microsomes
# Type: in vitro ADME
# condition info: 30 minutes incubation, remaining compound by HPLC, 6-Me compounds of the invention, read-out: Rat Microsome Stability of 6-Me cyanopyridine Compounds (approximate half life)
parameter measured: half-life

As a guide, the following entries are already answered.
CCOCCNCCOc1ccc(-c2c(C)ncc(C#N)c2Nc2ccc3[nH]ccc3c2C)cc1 [Example 19]; > 30 min
Cc1ncc(C#N)c(Nc2ccc3[nH]ccc3c2C)c1-c1ccc(OCCNC2CCN(C)CC2)cc1 [Example 22]; > 30 min
Cc1ncc(C#N)c(Nc2ccc3[nH]ccc3c2C)c1-c1ccc(OCCNCCCn2ccnc2)cc1 [Example 38]; > 30 min
Cc1ncc(C#N)c(Nc2ccc3[nH]ccc3c2C)c1-c1ccc(OCCN2CCN(C)CC2)cc1 [Example 14]; > 30 min
Cc1ncc(C#N)c(Nc2ccc3[nH]ccc3c2C)c1-c1ccc(OCCN2CCN(CCN(C)C)CC2)cc1 [Example 36]; > 30 min
CCN1CCN(CCOc2ccc(-c3c(C)ncc(C#N)c3Nc3ccc4[nH]ccc4c3C)cc2)CC1 [Example 33]; > 30 min

Kindly consider the entry below.
# input compound: Cc1ncc(C#N)c(Nc2ccc3[nH]ccc3c2C)c1-c1ccc(OCCNCC2CCN(C)CC2)cc1 [Example 23] ; wanted: its half-life
> 30 min
